B1: glmS ribozyme (parent)
chain: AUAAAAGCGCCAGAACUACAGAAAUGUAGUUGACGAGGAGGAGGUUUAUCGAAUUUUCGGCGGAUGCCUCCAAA

- Variants of: B1
- test summary: self-cleavage kobs at 640 uM GlcN6P; higher = faster cleavage; RNA array
- conditions used: with glucosamine-6-phosphate
Variants at the floor of the assay were thinned out.
measured property: self-cleavage kobs at 640 uM GlcN6P

Examples with their reported self-cleavage kobs at 640 uM GlcN6P follow.
{"columns": ["mutation name", "self-cleavage kobs at 640 uM GlcN6P"],
 "data": [
  ["G40U C71U", "0.00248 s⁻¹"],
  ["U47G G51A A52G U65G", "< 1e-05 s⁻¹"],
  ["G9C G37C C70G", "< 1e-05 s⁻¹"],
  ["G9A G40C", "< 1e-05 s⁻¹"],
  ["C16U A33C", "9.7e-05 s⁻¹"]
]}

Inquiry: Dear colleague, I am looking for the recorded self-cleavage kobs at 640 uM GlcN6P of the following variant: A12G G40U
Reply text: 5.37e-05 s⁻¹

Inquiry: Dear colleague, I am looking for the recorded self-cleavage kobs at 640 uM GlcN6P of the following variant: C8A A36G A42U A53G
Reply text: < 1e-05 s⁻¹

Inquiry: Dear colleague, I am looking for the recorded self-cleavage kobs at 640 uM GlcN6P of the following variant: U45A U54A G60A G66C
Reply text: < 1e-05 s⁻¹

Inquiry: Dear colleague, I am looking for the recorded self-cleavage kobs at 640 uM GlcN6P of the following variant: U31G G35U
Reply text: < 1e-05 s⁻¹

Inquiry: Dear colleague, I am looking for the recorded self-cleavage kobs at 640 uM GlcN6P of the following variant: A42U A53U G59C G62C
Reply text: < 1e-05 s⁻¹
